meta.source: patent US10251395B2

Test system: Viola tricolor
method.description: Post-emergence herbicidal effect
Format: in vivo
protocol.conditions: 80 g/ha, assessed visually after about 3 weeks vs untreated controls
assay.readout: post-emergence efficacy VIOTR
# include the unit after the value

Solved entries:
>>> recorded_result("Cc1cc2c(s1)CCCC2Nc1nc(N)c(Br)c(C(F)F)n1 (racemic)")
"60%"
>>> recorded_result("Cc1cc2c(s1)CCCC2Nc1ncc(SC(F)(F)F)c(C)n1 (racemic)")
"100%"
>>> recorded_result("Cc1cc2c(s1)CCCC2Nc1ncc(S(C)(=O)=O)c(N)n1 (racemic)")
"80%"
>>> recorded_result("N#Cc1cc2c(s1)C(Nc1ncc(C(F)(F)F)c(N)n1)CCC2 (racemic)")
"80%"
>>> recorded_result("CC(=O)c1c(N)nc(NC2CCCc3sc(C)cc32)nc1C(F)(F)F (racemic)")
"80%"

Record post-emergence efficacy VIOTR for all entries; do not skip any.
1. Cc1cc2c(s1)C(Nc1ncc(S(C)(=O)=O)c(N)n1)CCC2 (racemic)
2. CS(=O)(=O)c1cnc(NC2CCCc3sc(Cl)cc32)nc1N (racemic)
3. Cc1cc2c(s1)CCCC2Nc1nc(N)c([S+](C)[O-])c(C(F)F)n1 (racemic)

Response:
90%
90%
90%

---

For each entry below, report its CYPES pre-emergence efficacy (herbicidal activity) value.
Tested on: Cyperus esculentus
method.description: Pre-emergence herbicidal effect
Assay type: in vivo
protocol.conditions: Dosage 80 g/ha, scored visually after 3 weeks
Numbers only, in %.

>>> recorded_result("Cc1cc2c(s1)CCCC2Nc1nc(N)c(S(C)(=O)=O)c(C(F)F)n1 (racemic)")
80
>>> recorded_result("Cc1sc2c(c1C)C(Nc1ncc(C(F)(F)F)c(N)n1)CCC2 (centres unmarked)")
80
>>> recorded_result("Cc1cc2c(s1)CCCC2Nc1nc(N)c(Br)c(C(F)F)n1 (racemic)")
90
>>> recorded_result("Cc1cc2c(s1)CCCC2Nc1ncc(C#N)c(N)n1 (racemic) [compound 52]")
100

Now, please, on to the next compound.
Query: Identify measured CYPES pre-emergence efficacy (herbicidal activity) obtained with Cyperus esculentus for Cc1cc2c(s1)CCCC2Nc1ncc(C#N)c(N)n1 (centres unmarked) [compound 282] .
Response: 80

---

For each entry below, report its post-emergence efficacy ECHCG value.
System: Echinochloa crus-galli
method.description: Post-emergence herbicidal effect
Format: in vivo
protocol.conditions: 320 g/ha, assessed visually after about 3 weeks vs untreated controls
Answers are plain numbers, in %.

Solved entries:
>>> recorded_result("Nc1nc(NC2CCc3ccsc32)ncc1C(F)(F)F (racemic) [compound 29]")
100
>>> recorded_result("CC(=O)c1cnc(NC2CCCc3sc(C)cc32)nc1N (racemic) [compound 150]")
80
>>> recorded_result("CS(=O)(=O)c1cnc(NC2CCCc3ccsc32)nc1N (racemic) [compound 69]")
80
>>> recorded_result("Cc1cc2c(s1)CCCC2Nc1ncc(S(C)(=O)=O)c(N)n1 (racemic) [compound 59]")
100
>>> recorded_result("C/C(=N\\O)c1cnc(NC2CCCc3sc(Cl)cc32)nc1C (racemic) [compound 260]")
100

Record post-emergence efficacy ECHCG for all entries; do not skip any.
1. Cc1cc2c(s1)CCCC2Nc1ncc(C#N)c(N)n1 (stereo not drawn) [compound 282]
2. Nc1nc(N[C@@H]2CCCc3sccc32)ncc1C(F)(F)F [compound 46]
3. Cc1cc2c(s1)CCC2Nc1ncc(S(C)(=O)=O)c(N)n1 (racemic) [compound 4]
4. Cc1cc2c(o1)CCCC2Nc1ncc(S(C)(=O)=O)c(N)n1 (racemic) [compound 62]

Response:
1: 100; 2: 100; 3: 100; 4: 40

---

Test system: Echinochloa crus-galli
method.description: Post-emergence herbicidal effect
Format: in vivo
protocol.conditions: 320 g/ha, assessed visually after about 3 weeks vs untreated controls
assay.readout: post-emergence efficacy ECHCG (%)
Give bare numbers, in %.

Solved entries:
>>> recorded_result("Cc1cc2c(s1)CC(C)C2Nc1ncc(S(C)(=O)=O)c(N)n1 (racemic)")
100
>>> recorded_result("Cc1cc2c(s1)CCCC2Nc1ncc(C#N)c(N)n1 (racemic) [compound 52]")
100
>>> recorded_result("CC(=O)c1cnc(NC2CCCc3sc(C)cc32)nc1N (stereo not shown) [compound 283]")
100

Record post-emergence efficacy ECHCG for all entries; do not skip any.
1. Nc1nc(NC2CCc3sc(Cl)cc32)ncc1C(F)(F)F (racemic)
2. Nc1nc(NC2CCCc3sccc32)ncc1C(F)(F)F (racemic)
3. Cc1cc2c(s1)C(Nc1ncc(C(F)(F)F)c(N)n1)CCC2 (racemic)
4. Cc1cc2c(s1)CCC[C@H]2Nc1ncc2c(n1)CCCS2(=O)=O
5. Cc1cc2c(s1)CCCC2Nc1nc(N)c([S+](C)[O-])c(C(F)F)n1 (racemic)
6. CS(=O)(=O)c1cnc(NC2CCCc3cc(Cl)sc32)nc1N (racemic)
7. CS(=O)(=O)c1cnc(NC2CCCc3sccc32)nc1N (racemic)
8. Cc1cc2c(s1)CCC[C@H]2Nc1ncc(C(F)(F)F)c(N)n1

Response:
100
80
100
100
90
90
80
100

Record post-emergence efficacy ECHCG for all entries; do not skip any.
1. Cc1sc2c(c1C)C(Nc1ncc(C(F)(F)F)c(N)n1)CCC2 (stereo not shown)
2. CC(=NO)c1cnc(NC2CCCc3sc(C)cc32)nc1N (racemic)
3. Nc1nc(NC2CCc3cc(Cl)sc32)ncc1C(F)(F)F (racemic)

Response:
90
70
100

Record post-emergence efficacy ECHCG for all entries; do not skip any.
1. Cc1cc2c(s1)CCCC2Nc1ncc(C(F)(F)F)c(N)n1 (racemic) [compound 61]
2. CS(=O)(=O)c1cnc(NC2CCCc3sc(Cl)cc32)nc1N (racemic)

Response:
[100, 100]

Record post-emergence efficacy ECHCG for all entries; do not skip any.
1. Cc1cc2c(s1)CCCC2Nc1ncc2c(n1)CCCC2=O (racemic)
2. Cc1cc2c(s1)CCCC2Nc1nc(N)c(S(C)(=O)=O)c(Cl)n1 (racemic)
3. Cc1cc2c(s1)CCCC2Nc1ncc(C(F)(F)F)c(N)n1 (racemic) [compound 11]

Response:
1: 100; 2: 100; 3: 100

---

For each entry below, report its SETVI pre-emergence efficacy (herbicidal activity) value.
Test system: Setaria viridis
method.description: Pre-emergence herbicidal effect
Type: in vivo
protocol.conditions: Dosage 320 g/ha, scored visually after 3 weeks
One number for each entry, in %.

Solved entries:
>>> recorded_result("Cc1cc2c(s1)CCCC2Nc1nc(N)c(C#N)c(C(C)F)n1 (racemic)")
100
>>> recorded_result("Cc1cc2c(s1)CCCC2Nc1ncc(C(=O)C(F)(F)Cl)c(N)n1 (racemic)")
90
>>> recorded_result("CO/N=C(/C)c1cnc(NC2CCCc3sccc32)nc1N (racemic)")
100

Now, please, on to the next compound.
Query: For the compound Nc1nc(NC2CCCc3sc(Cl)cc32)ncc1C(F)(F)F (racemic) , give its measured SETVI pre-emergence efficacy (herbicidal activity) value.
Response: 100

---

Tested on: Polygonum convolvulus
method.description: Post-emergence herbicidal effect
Format: in vivo
protocol.conditions: 320 g/ha, assessed visually after about 3 weeks vs untreated controls
For each entry below, report its post-emergence efficacy POLCO value.
One number for each entry, in %.

>>> recorded_result("Nc1nc(N[C@@H]2CCCc3sccc32)ncc1C(F)(F)F [compound 46]")
90
>>> recorded_result("Cc1cc2c(s1)CCCC2Nc1ncc(C#N)c(N)n1 (stereo not shown) [compound 282]")
90
>>> recorded_result("Nc1nc(NC2CCc3sc(Cl)cc32)ncc1C(F)(F)F (racemic) [compound 256]")
90
>>> recorded_result("Cc1cc2c(s1)CCCC2Nc1nc(N)c(Br)c(C(F)F)n1 (racemic) [compound 284]")
100
>>> recorded_result("CC(=O)c1cnc(NC2CCCc3sc(C)cc32)nc1N (stereo not shown) [compound 283]")
70
>>> recorded_result("Cc1cc2c(s1)CCCC2Nc1nc(N)c([S+](C)[O-])c(C(F)F)n1 (racemic) [compound 264]")
80

Record post-emergence efficacy POLCO for all entries; do not skip any.
1. Cc1cc2c(s1)CCC[C@H]2Nc1ncc(I)c(N)n1 [compound 173]
2. Cc1cc2c(s1)CC(C)C2Nc1ncc(S(C)(=O)=O)c(N)n1 (racemic) [compound 17]
3. CS(=O)(=O)c1cnc(N[C@@H]2CCCc3sccc32)nc1N [compound 24]

Response:
60
80
80

Record post-emergence efficacy POLCO for all entries; do not skip any.
1. CS(=O)(=O)c1cnc(NC2CCCc3sccc32)nc1N (racemic) [compound 23]
2. Nc1nc(NC2CCc3ccsc32)ncc1C(F)(F)F (racemic) [compound 29]
3. Cc1cc2c(s1)CCCC2Nc1ncc(SC(F)(F)F)c(C)n1 (racemic) [compound 80]

Response:
80
90
60

Record post-emergence efficacy POLCO for all entries; do not skip any.
1. Cc1cc2c(s1)CCC[C@H]2Nc1ncc(C(F)(F)F)c(N)n1 [compound 47]
2. Cc1cc2c(s1)CCC2Nc1ncc(S(C)(=O)=O)c(N)n1 (racemic) [compound 4]
3. CS(=O)(=O)c1cnc(NC2CCCc3cc(Cl)sc32)nc1N (racemic) [compound 53]

Response:
1. 80
2. 100
3. 90

Record post-emergence efficacy POLCO for all entries; do not skip any.
1. Cc1cc2c(s1)CCCC2Nc1ncc(C(F)(F)F)c(N)n1 (racemic) [compound 61]
2. CO/N=C(/C)c1cnc(NC2CCCc3sccc32)nc1N (racemic) [compound 292]
3. Nc1nc(NC2CCCc3sc(Cl)cc32)ncc1C(F)(F)F (racemic) [compound 22]
4. Cc1sc2c(c1C)C(Nc1ncc(C(F)(F)F)c(N)n1)CCC2 (stereo not shown) [compound 213]
5. C/C(=N\OC(C)C)c1cnc(NC2CCCc3sc(C)cc32)nc1N (racemic) [compound 288]
6. C/C(=N\O)c1cnc(NC2CCCc3sc(Cl)cc32)nc1C (racemic) [compound 260]

Response:
1: 90; 2: 30; 3: 90; 4: 90; 5: 70; 6: 60

Record post-emergence efficacy POLCO for all entries; do not skip any.
1. Cc1cc2c(s1)C(Nc1ncc(C(F)(F)F)c(N)n1)CCC2 (racemic) [compound 55]
2. Cc1cc2c(s1)CCCC2Nc1ncc(C(F)(F)F)c(N)n1 (racemic) [compound 257]
3. Cc1cc2c(s1)CCCC2Nc1ncc(C(F)(F)F)c(N)n1 (racemic) [compound 11]
4. Cc1cc2c(s1)CCC[C@H]2Nc1ncc2c(n1)CCCS2(=O)=O [compound 44]

Response:
1. 90
2. 80
3. 90
4. 80
